# Tested on: RPMI-8226 leukemia
# Assay text: NCI-60 one-dose screen, 48 h
# Assay setup: 10 µM unless noted
The panel holds about 83,000 compounds, 20% with a hit somewhere; the sample as a whole holds those more often. Calls of active or inactive are those of the source. Rule for the calls: active = growth percent below 10; inactive = the rest.
Returns: one label drawn from True = active, False = inactive

Example results:
>  <Compound>
O=C(O)c1ccccc1Oc1cc(-c2ccco2)nc(OCCN2CCOCC2)n1

>  <Assigned category>
False

$$$$
>  <Compound>
COc1ccc2c(c1)sc1nc(-c3ccccc3)c(-c3cccc4ccccc34)n12

>  <Assigned category>
False

$$$$

// outcome(item) with item = `C=C[C@H]1CCC/C=C/[C@@H]2C[C@H](O)C[C@H]2[C@H](O)/C=C/C(=O)O1`
True

Query: recorded result category for `C=C(c1ccc(C(=O)NCCCn2ccnc2)cc1)c1cc2c(cc1C)C(C)(C)CCC2(C)C` in this test
False

# outcome recorded in this test, key = `Cc1ccc(NC(=O)c2sc3nc4c(cc3c2N)C(=O)CCC4)cc1Cl`
False

Recorded call for `C/C(=N\NC(=O)CSc1nc2ccccc2c(=O)n1CCc1ccc(S(N)(=O)=O)cc1)c1ccc(Br)cc1` ?
False

GET /call?item= COc1ccc(C(=O)OC2C(OC3C(O)COC(O[C@H]4C[C@H]5[C@@H]6CC=C7C[C@@H](O)CC[C@]7(C)[C@H]6CC[C@]5(C)[C@H]4[C@H](C)C(=O)CCC(C)C)C3OC(N)=O)OCC(O)C2O)cc1 (stereo partly drawn) returns the recorded outcome of this test.
True

Query: recorded result category for `O=C(CCl)Nc1cc(O)c2c(c1)C(=O)c1cccc(O)c1C2=O` in this test
True

###

# System: HOP-62 NSCLC
# Assay text: NCI-60 one-dose screen, 48 h
# Assay setup: 10 µM unless noted
This is part of a sample that, as a whole, favours compounds with a hit. Of some 83,000 tested, about 20% had one in any assay. Activity calls are given as the source filed them. The calls were made as follows: active = growth percent below 10; inactive = the rest.
Form entry, call: pick from 1 = active, -1 = inactive

>  <Molecule>
O=c1c2cc(Cl)ccc2oc2ccc(OCCCCCN3CCCCC3)cc12

>  <System under test>
HOP-62 NSCLC

>  <Assigned category>
-1

$$$$
>  <Molecule>
COc1ccc2c(c1)sc1nc(-c3ccccc3)c(-c3cccc4ccccc34)n12

>  <System under test>
HOP-62 NSCLC

>  <Assigned category>
-1

$$$$
>  <Molecule>
CCCCc1nc(Cl)c(C2CC(c3ccc(S(N)(=O)=O)cc3)=NN2c2ccc(C#N)cc2)[nH]1 (stereo unspecified)

>  <System under test>
HOP-62 NSCLC

>  <Assigned category>
-1

$$$$

Recorded call for `CS(=O)(=O)c1ccc(C(=O)N/N=C/c2ccccc2O)cc1` ?
-1

Could you check what this test reported for `Nc1c(C(=O)Nc2cccc(Cl)c2)sc2nc3c(cc12)C(=O)CCC3` ?
-1

Recorded call for `COc1ccc(Nc2nc(N)nc3c(=O)[nH]ccc23)cc1` ?
-1

Could you kindly confirm the outcome this assay logged for `C#Cc1cccc(Nc2nc3cc([N+](=O)[O-])ccc3nc2Nc2ccc(O)cc2)c1` ?
-1

// outcome(item) with item = `C/C(=N\NC(=O)CSc1nc2ccccc2c(=O)n1CCc1ccc(S(N)(=O)=O)cc1)c1ccc(Br)cc1`
-1

Recorded call for CN1C(=O)C(C2=NNC(c3ccccc3C(=O)O)C2)C(=O)N(C)C1=O (stereo unspecified) ?
-1

Short answer needed: outcome of this test for COc1cc(C2CC(c3ccc(Cl)cc3)=NN2C=O)ccc1Oc1ccnc2cc(Cl)ccc12 (stereo unspecified) ?
-1

Recorded call for `CCCCOc1nc2ccc(C)cc2cc1/C=C/C(=O)/C=C(O)/C=C/c1cc2cc(C)ccc2nc1OCCCC` ?
-1
